Molecular target: δ-opioid receptor (DOR) (Homo sapiens, UniProt P41143)
Construct: host or cells: cAMP Hunter CHO-K1 OPRD1 Gαi cell line
Sequence (P41143 whole entry): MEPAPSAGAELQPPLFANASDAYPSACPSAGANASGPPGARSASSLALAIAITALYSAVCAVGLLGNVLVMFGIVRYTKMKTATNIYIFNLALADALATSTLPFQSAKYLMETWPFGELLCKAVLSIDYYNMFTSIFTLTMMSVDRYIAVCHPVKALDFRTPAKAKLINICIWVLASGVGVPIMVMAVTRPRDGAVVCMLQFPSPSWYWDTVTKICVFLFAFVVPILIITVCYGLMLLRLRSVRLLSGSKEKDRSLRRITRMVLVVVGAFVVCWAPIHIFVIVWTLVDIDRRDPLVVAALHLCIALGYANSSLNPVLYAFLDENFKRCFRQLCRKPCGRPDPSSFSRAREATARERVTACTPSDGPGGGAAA
Assay: DOR agonist cAMP assay (HitHunter cAMP, forskolin-stimulated)
Assay type: cell-based
Square brackets hold non-standard residues; d marks the D form. Peptide text beside a SMILES is read from it. Dmt = Cc1cc(O)cc(C)c1C[C@H](N)C(=O)O; Nle = CCCC[C@H](N)C(=O)O
measurementKind: EC50

Guide cases for EC50, answers given:
compound	valueReported
CCCC[C@H](NC(=O)[C@H](Cc1c[nH]c2ccccc12)NC(=O)[C@@H](CCCNC(=N)N)NC(=O)[C@@H](N)Cc1c(C)cc(O)cc1C)C(N)=O [compound 31] (H-[Dmt][dR]W[Nle]-NH2)	0.01 to 0.05 µM
CCCC[C@@H](C(=O)O)N(C)C(=O)C[C@H](Cc1ccc(C)cc1)NC(=O)CNC(=O)[C@@H](C)NC(=O)[C@@H](N)Cc1c(C)cc(O)cc1C	< 0.001 µM

stdin: Any idea what its EC50 is? The compound is Cc1cc(O)cc(C)c1C[C@H](N)C(=O)N[C@H](CCCNC(=N)N)C(=O)N[C@@H](Cc1ccccc1)C(=O)N[C@@H](CC(C)C)C(N)=O [compound 29] (H-[Dmt][dR]FL-NH2)
stdout: 0.01 to 0.05 µM

stdin: Any idea what its EC50 is? The compound is Cc1cc(O)cc(C)c1C[C@H](N)C(=O)N[C@H](CC(=O)O)C(=O)NCC(=O)N[C@H](CC(=O)N(C)[C@@H](Cc1ccc(O)cc1)C(=O)O)Cc1ccccc1
stdout: < 0.001 µM

stdin: Any idea what its EC50 is? The compound is Cc1cc(C(N)=O)cc(C)c1C[C@H](N)C(=O)N[C@H](C)C(=O)NCC(=O)N[C@H](CC(=O)N(C)[C@H](C(=O)O)c1ccccc1)Cc1ccccc1
stdout: < 0.001 µM

---

Biological target: UniProtKB P41143
Experiment: DOR agonist cAMP assay (HitHunter cAMP, forskolin-stimulated)
pEC50: −log10 of the molar value. Square brackets hold non-standard residues; d marks the D form. Peptide text beside a SMILES is read from it. Phe(4-tBu) = CC(C)(C)c1ccc(C[C@H](N)C(=O)O)cc1; Dip = N[C@H](C(=O)O)C(c1ccccc1)c1ccccc1; Phe(4-F) = N[C@@H](Cc1ccc(F)cc1)C(=O)O; Dmt = Cc1cc(O)cc(C)c1C[C@H](N)C(=O)O; dTic = O=C(O)[C@H]1Cc2ccccc2CN1; Sar = CNCC(=O)O
The following molecules are listed with their measured pEC50 values.

Guide cases for pEC50, answers given:
molecule	valueReported
Cc1cc(O)cc(C)c1C[C@H](N)C(=O)N[C@H](CCCNC(=N)N)C(=O)N[C@@H](Cc1ccccc1)C(=O)N[C@@H](Cc1ccc(F)cc1)C(N)=O [compound 16] (H-[Dmt][dR]F[Phe(4-F)]-NH2)	7.30 to 8.00
Cc1cc(O)cc(C)c1C[C@H](N)C(=O)N1Cc2ccccc2C[C@@H]1C(=O)NCC(=O)N[C@@H](Cc1ccccc1)C(=O)N(C)CC(N)=O [compound 45] (H-[Dmt][dTic]GF[Sar]-NH2)	> 9.00
Cc1cc(O)cc(C)c1C[C@H](N)C(=O)N[C@H](CCCNC(=N)N)C(=O)N[C@@H](Cc1ccc(C(C)(C)C)cc1)C(=O)N(C)CC(N)=O [compound 24] (H-[Dmt][dR][Phe(4-tBu)][Sar]-NH2)	< 6.70
Cc1cc(O)cc(C)c1C[C@H](N)C(=O)N[C@H](CCCNC(=N)N)C(=O)N[C@@H](Cc1ccccc1)C(=O)N[C@H](C(N)=O)C(c1ccccc1)c1ccccc1 [compound 36] (H-[Dmt][dR]F[Dip]-NH2)	7.30 to 8.00

Now turn to the next molecule.
stdin: Any idea what its pEC50 is? The molecule is Cc1cc(O)cc(C)c1C[C@H](N)C(=O)N[C@H](C)C(=O)NCC(=O)N1Cc2ccccc2C[C@H]1C(=O)NCC(N)=O [compound 40]
stdout: 7.30 to 8.00

src = patent US10278957B2
